Recorded values, source patent US20210284734A1.

target: T1, His-tagged human PD-1 ECD (human, UniProt Q15116 25-170); experiment: SPR, IgG captured, monovalent PD-1 ECD analyte
T1 construct: bought from Acro Biosystems; not shown: His tag
T1 sequence (Q15116 25-170): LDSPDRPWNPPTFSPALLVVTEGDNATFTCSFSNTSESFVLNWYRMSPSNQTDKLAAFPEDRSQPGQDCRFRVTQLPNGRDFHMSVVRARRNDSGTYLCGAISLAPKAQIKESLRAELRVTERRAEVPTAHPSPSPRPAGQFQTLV
Returns 1 if the recorded koff is greater than or equal to 0.0002 s⁻¹, and 0 otherwise.

BINDER	LABEL
12748.15381 (antibody, human IgG1, lambda, L234A L235A, V domains shown, humanized, IgG1 LALA, lambda) VH: EVQLLESGGGLVQPGGSLRLSCAASGFTFSDYAMNWVRQAPGKGLEWVAGIGNDGSYTNYGAAVKGRATISRDNSKNTLYLQMNSLRAEDTAVYYCASDIRSRNDCSYFLGGCSSGFIDVWGQGTLVTVSS VL: SYELTQDPAVSVALGQTVRITCSGGSSYSYGWFQQKPGQAPVTVIYESNNRPSDIPDRFSGSSSGNTASLTITGAQAEDEADYYCGNADSSSGIFGSGTKVTVLG	0
12865.15377 (antibody, human IgG1, lambda, L234A L235A, V domains shown, humanized, IgG1 LALA, lambda) VH: EVQLLESGGGLVQPGGSLRLSCAASGFDFSDHGMQWVRQAPGKGLEYVGVIDTTGRYTYYAPAVKGRATISRDNSKNTLYLQMNSLRAEDTAVYYCAKTTCVGGYLCNTVGSIDAWGQGTLVTVSS VL: SYELTQDPAVSVALGQTVRITCSGGGSSSYYGWYQQKPGQAPVTVIYDDTNRPSGIPDRFSGSSSGNTASLTITGAQAEDEADYYCGGYEGSSHAGIFGSGTKVTVLG	1
12760.15375 (antibody, human IgG1, lambda, L234A L235A, V domains shown, humanized, IgG1 LALA, lambda) VH: EVQLLESGGGLVQPGGSLRLSCAASGFTFSTFNMVWVRQAPGKGLEYVAEISSDGSFTWYATAVKGRATISRDNSKNTVYLQMNSLRAEDTAVYYCAKSDCSSSYYGYSCIGIIDAWGQGTLVTVSS VL: SYELTQDPAVSVALGQTVRITCSGGISDDGSYYYGWFQQKPGQAPVTVIYINDRRPSNIPDRFSGSSSGNTASLTITGAQAEDEADYYCGSYDSSAGVGIFGSGTKVTVLG	0
12748.16124 (antibody, human IgG1, lambda, L234A L235A, V domains shown, alternative germline VL variant of 12748.15381; IgG1 LALA, lambda) VH: EVQLLESGGGLVQPGGSLRLSCAASGFTFSDYAMNWVRQAPGKGLEWVAGIGNDGSYTNYGAAVKGRATISRDNSKNTLYLQMNSLRAEDTAVYYCASDIRSRNDCSYFLGGCSSGFIDVWGQGTLVTVSS VL: SYELTQPPSVSVSPGQTARITCSGGSSYSYGWFQQKPGQAPVTVIYESNNRPSDIPERFSGSSSGTTVTLTISGVQAEDEADYYCGNADSSSGIFGSGTKVTVLG	0
12796.15376 (antibody, human IgG1, lambda, L234A L235A, V domains shown, humanized, IgG1 LALA, lambda) VH: EVQLLESGGGLVQPGGSLRLSCAASGFDFSSYTMQWVRQAPGKGLEWVGVISSTGGSTGYGPAVKGRATISRDNSKNTLYLQMNSLRAEDTAVYYCVKSVSGDAWSVDGLDAWGQGTLVTVSS VL: SYELTQDPAVSVALGQTVRITCSGGGSAYGWYQQKPGQAPVTVIYYNNQRPSDIPDRFSGSSSGNTASLTITGAQAEDEADYYCGSYDSSAVGIFGSGTKVTVLG	1
